Target: T1, monomeric human PRLR (hPRLR.mmh; SEQ ID NO:401) (Homo sapiens, UniProt P16471)
T1 construct: soluble monomeric (hPRLR.mmh); mmh (myc-myc-hexahistidine) (C)
T1 sequence (P16471 with tags, fused parts or gaps): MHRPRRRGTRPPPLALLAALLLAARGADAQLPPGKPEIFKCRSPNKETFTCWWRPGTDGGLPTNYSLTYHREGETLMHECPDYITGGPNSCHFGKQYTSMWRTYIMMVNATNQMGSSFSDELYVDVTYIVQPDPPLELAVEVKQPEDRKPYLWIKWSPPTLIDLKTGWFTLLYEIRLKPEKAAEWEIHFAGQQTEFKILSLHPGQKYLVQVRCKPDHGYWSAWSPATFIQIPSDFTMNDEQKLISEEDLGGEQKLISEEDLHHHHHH
Experiment: Surface plasmon resonance (Biacore T200), antibody-capture format
Type: binding
Conditions: 25° C., analyte hPRLR.mmh
test readout: ka (M/s)
Give bare numbers, in M/s.

Please report the recorded ka for H1H6959N2: anti-PRLR antibody, human IgG1 Fc form of H2M6959N2 of Table 1; HCVR/LCVR SEQ ID NOs 306/314 (antibody, V domains shown) VH: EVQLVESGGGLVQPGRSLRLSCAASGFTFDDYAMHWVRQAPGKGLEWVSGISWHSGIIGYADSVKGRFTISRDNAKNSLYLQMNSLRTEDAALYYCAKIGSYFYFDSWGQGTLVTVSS VL: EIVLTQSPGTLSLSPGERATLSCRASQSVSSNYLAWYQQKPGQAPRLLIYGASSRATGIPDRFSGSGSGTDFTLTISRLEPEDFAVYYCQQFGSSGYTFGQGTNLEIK . 179000
